// data source = ChEMBL document CHEMBL1143164

Tested on: LNCaP
experiment summary: Growth inhibition of human LNCap cells
Type: functional, cell-based
observation type: IC50 (nM)
# value in nM; strip the unit string

Some compounds with known IC50 results, for comparison:
COC[C@H]1OC(=O)/C(=C/N(C)CCCN(C)C)C2=C(O)C(=O)C3=C([C@H](O)C[C@]4(C)[C@@H](O)CC[C@@H]34)[C@]21C | 2340
COC[C@H]1OC(=O)/C(=C/N(C)CCCN2CCN(C)CC2)C2=C(O)C(=O)C3=C([C@H](OC(C)=O)C[C@]4(C)[C@@H](O)CC[C@@H]34)[C@]21C | 465

*Q* What does the record list as IC50 for COC[C@H]1OC(=O)/C(=C/N2CCN(Cc3ccccc3)CC2)C2=C(O)C(=O)C3=C([C@H](OC(C)=O)C[C@]4(C)[C@@H](O)CC[C@@H]34)[C@]21C ?
*A* 1650

*Q* What does the record list as IC50 for COC[C@H]1OC(=O)/C(=C/N2CCC(=O)CC2)C2=C(O)C(=O)C3=C([C@H](OC(C)=O)C[C@]4(C)[C@@H](O)CC[C@@H]34)[C@]21C ?
*A* 699

*Q* What does the record list as IC50 for COC[C@H]1OC(=O)/C(=C/N(C)CC(O)CO)C2=C(O)C(=O)C3=C([C@H](OC(C)=O)C[C@]4(C)[C@@H](O)CC[C@@H]34)[C@]21C (stereo partly specified) ?
*A* 168

*Q* What does the record list as IC50 for COC[C@H]1OC(=O)/C(=C/N2CCC(c3ccccc3)CC2)C2=C(O)C(=O)C3=C([C@H](OC(C)=O)C[C@]4(C)[C@@H](O)CC[C@@H]34)[C@]21C ?
*A* 1520

---

experimental system: Phosphatidylinositol 4,5-bisphosphate 3-kinase catalytic subunit beta isoform (Homo sapiens)
Sequence (P42338 whole entry, canonical isoform): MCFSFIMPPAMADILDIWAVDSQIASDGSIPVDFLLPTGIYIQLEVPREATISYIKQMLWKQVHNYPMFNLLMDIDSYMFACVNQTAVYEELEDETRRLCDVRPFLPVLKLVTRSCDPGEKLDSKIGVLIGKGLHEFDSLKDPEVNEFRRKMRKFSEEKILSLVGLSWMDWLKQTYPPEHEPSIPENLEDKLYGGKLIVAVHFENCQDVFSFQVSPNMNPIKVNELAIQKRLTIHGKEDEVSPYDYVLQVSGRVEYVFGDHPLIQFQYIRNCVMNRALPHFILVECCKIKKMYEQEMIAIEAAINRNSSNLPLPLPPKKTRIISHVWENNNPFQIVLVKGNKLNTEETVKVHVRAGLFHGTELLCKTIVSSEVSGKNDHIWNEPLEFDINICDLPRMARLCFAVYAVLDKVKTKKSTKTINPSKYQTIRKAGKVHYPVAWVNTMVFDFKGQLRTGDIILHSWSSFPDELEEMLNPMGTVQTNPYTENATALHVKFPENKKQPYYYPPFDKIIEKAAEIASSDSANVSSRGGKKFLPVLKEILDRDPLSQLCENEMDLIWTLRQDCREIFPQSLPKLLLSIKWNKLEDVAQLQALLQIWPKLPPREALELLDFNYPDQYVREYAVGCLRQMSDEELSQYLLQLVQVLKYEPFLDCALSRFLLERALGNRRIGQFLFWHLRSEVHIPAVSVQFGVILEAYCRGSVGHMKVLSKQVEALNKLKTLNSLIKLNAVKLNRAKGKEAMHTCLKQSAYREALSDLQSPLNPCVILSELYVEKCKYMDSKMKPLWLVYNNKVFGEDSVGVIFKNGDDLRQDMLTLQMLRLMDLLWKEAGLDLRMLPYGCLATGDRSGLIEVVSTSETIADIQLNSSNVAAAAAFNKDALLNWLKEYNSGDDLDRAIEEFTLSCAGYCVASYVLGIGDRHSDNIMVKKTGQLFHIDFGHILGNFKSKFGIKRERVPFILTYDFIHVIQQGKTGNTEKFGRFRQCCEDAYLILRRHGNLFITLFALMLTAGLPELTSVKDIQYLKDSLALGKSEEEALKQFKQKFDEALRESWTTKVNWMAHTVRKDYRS
experiment summary: Inhibition of PI3Kbeta
observation type: IC50 (nM)
# value in nM; strip the unit string

*Q* What does the record list as IC50 for COC[C@H]1OC(=O)/C(=C/N(C)CCCN(C)C)C2=C(O)C(=O)C3=C([C@H](OC(C)=O)C[C@]4(C)[C@@H](O)CC[C@@H]34)[C@]21C ?
*A* 13

---

experimental system: Dual specificity mitogen-activated protein kinase kinase 1 (Homo sapiens, UniProt Q02750)
Sequence (Q02750 whole entry): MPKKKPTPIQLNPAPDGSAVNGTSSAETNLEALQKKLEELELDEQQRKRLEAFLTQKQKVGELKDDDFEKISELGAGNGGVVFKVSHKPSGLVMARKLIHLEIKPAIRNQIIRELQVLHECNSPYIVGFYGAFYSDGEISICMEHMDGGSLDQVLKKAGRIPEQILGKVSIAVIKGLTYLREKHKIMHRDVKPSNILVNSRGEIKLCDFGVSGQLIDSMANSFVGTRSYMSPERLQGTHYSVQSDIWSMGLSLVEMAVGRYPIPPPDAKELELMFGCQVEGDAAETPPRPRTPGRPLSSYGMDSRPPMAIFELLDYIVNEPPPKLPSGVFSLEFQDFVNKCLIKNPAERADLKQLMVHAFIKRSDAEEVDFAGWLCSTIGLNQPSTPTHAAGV
experiment summary: Inhibition of MEK1
pIC50: −log10 of the molar value.
observation type: pIC50

COC[C@H]1OC(=O)/C(=C/N(C)CCCN(C)C)C2=C(O)C(=O)C3=C([C@H](OC(C)=O)C[C@]4(C)[C@@H](O)CC[C@@H]34)[C@]21C | < 5.00

*Q* What does the record list as pIC50 for COC[C@H]1OC(=O)/C(=C/N(CCO)C(C)(C)C)C2=C(O)C(=O)C3=C([C@H](OC(C)=O)C[C@]4(C)[C@@H](O)CC[C@@H]34)[C@]21C ?
*A* < 5.00

---

experiment summary: Inhibition of IGFR
observation type: IC50

COC[C@H]1OC(=O)/C(=C/N(CCO)C(C)(C)C)C2=C(O)C(=O)C3=C([C@H](OC(C)=O)C[C@]4(C)[C@@H](O)CC[C@@H]34)[C@]21C | > 10 µM

Consider now this further compound.
*Q* What does the record list as IC50 for COC[C@H]1OC(=O)/C(=C/N(C)CCCN(C)C)C2=C(O)C(=O)C3=C([C@H](OC(C)=O)C[C@]4(C)[C@@H](O)CC[C@@H]34)[C@]21C ?
*A* > 10 µM
